// provenance: patent US20240148821A1

# Tested System: protein-protein interaction between Kras and SOS1 (biotin-tagged human Kras loaded with GDP, His-tagged human SOS1) (Homo sapiens (Human), UniProt P01116, G12D)
# Procedure Summary: Protein-protein interaction inhibition between Kras and SOS1 (KrasG12D-SOS PPI) using AlphaScreen;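 further: kras produced in E. coli, Ni-coupled donor beads and streptavidin acceptor beads, excitation 680 nm with emission detected at 520–620 nm via singlet oxygen transfer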
# Assay type: biochemical
# Applied Conditions: AlphaScreen; biotin-tagged human Kras loaded with GDP, His-tagged human SOS1; read-out: KRAS G12D-SOS PPI IC50
Numbered stars: 1 amine (or outer) side, 2 acyl side, 3 side chain; on linkers, the order of the positions; unused ones are H or OH. Bridge positions count the residues as written; N and C are the ends. Square brackets hold non-standard residues; d marks the D form. Peptide text beside a SMILES is read from it. * marks the point of attachment. hPhe(3,5-F2-4-CF3) = N[C@@H](CCc1cc(F)c(C(F)(F)F)c(F)c1)C(=O)O; hPhe(3-Cl-4-CF3) = N[C@@H](CCc1ccc(C(F)(F)F)c(Cl)c1)C(=O)O; 3Oxa8azabicyclo(3.2.1)octane = C1CC2COCC1N2*; NEtPhe(4-Me) = CCN[C@@H](Cc1ccc(C)cc1)C(=O)O; NMedβ3hAla = C[C@H](CC(=O)[*:2])N(C)[*:1]; NMeCha = CN[C@@H](CC1CCCCC1)C(=O)O; Hyp = O=C(O)[C@@H]1C[C@@H](O)CN1; NMeI = CC[C@H](C)[C@H](NC)C(=O)O; NMeL = CN[C@@H](CC(C)C)C(=O)O; NMeV = CN[C@H](C(=O)O)C(C)C; NMeA = CN[C@@H](C)C(=O)O; Ac5c = NC1(C(=O)O)CCCC1; Aze = O=C(O)[C@@H]1CCN1; Sar = CNCC(=O)O
For each record, write down the corresponding pIC50.
One number for each entry, as −log10 of the molar value.

Compound	Observed Property	Meas Value
CC[C@H](C)[C@@H]1NC(=O)[C@H](CC(C)C)N(C)C(=O)C[C@@H](C(=O)N2C3CCC2COC3)NC(=O)[C@H](C(C)C)N(C)C(=O)C2(CCCC2)NC(=O)[C@@H]2CCCN2C(=O)[C@H](CCc2ccc(C(F)(F)F)c(Cl)c2)NC(=O)CN(C)C(=O)[C@H](CC2CCCCC2)N(C)C(=O)[C@@H]2CCN2C(=O)[C@H](C)N(C)C1=O [Compound 1214] ([NMeL]I[NMeA][Aze][NMeCha][Sar][hPhe(3-Cl-4-CF3)]P[Ac5c][NMeV]D-{3Oxa8azabicyclo(3.2.1)octane}; lactam N-11)	pIC50	7.11

Here is another compound to look at.
Please list pIC50 recorded for the compound CCO[C@@H]1C[C@H]2C(=O)NC3(CCCC3)C(=O)N(C)[C@@H]([C@@H](C)CC)C(=O)N(C)[C@H](C)CC(=O)N(C)[C@@H](CC(C)C)C(=O)N[C@@H]([C@@H](C)CC)C(=O)N(C)[C@@H](C)C(=O)N3CC[C@H]3C(=O)N(CC)[C@@H](Cc3ccc(C)cc3)C(=O)N(C)CC(=O)N[C@@H](CCc3cc(F)c(C(F)(F)F)c(F)c3)C(=O)N2C1 [Compound 33] (cyclo([Ac5c][NMeI][NMedβ3hAla][NMeL]I[NMeA][Aze][NEtPhe(4-Me)][Sar][hPhe(3,5-F2-4-CF3)][Hyp](Et)))
8.16
